Item-by-item account of IC50
- target under test: HIV-1 Env of pseudovirus isolate MGRM-G-014 (subtype G) (HIV-1)
- assay name: cell-based or functional assay
Your answer should be a plain number; it is taken to be in µg/mL.

input: Supply recorded IC50 for PGT-128 (antibody, V domains shown) VH: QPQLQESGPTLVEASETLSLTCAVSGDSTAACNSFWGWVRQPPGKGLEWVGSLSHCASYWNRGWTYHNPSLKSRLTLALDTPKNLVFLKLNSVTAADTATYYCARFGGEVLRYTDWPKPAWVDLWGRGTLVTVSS VL: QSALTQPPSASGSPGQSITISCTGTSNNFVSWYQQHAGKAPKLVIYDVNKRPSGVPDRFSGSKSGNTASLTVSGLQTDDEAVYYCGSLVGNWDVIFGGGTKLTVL here.
output: 0.004

More entries:
input: Write down IC50 measured for item PGT-131 (antibody, V domains shown) VH: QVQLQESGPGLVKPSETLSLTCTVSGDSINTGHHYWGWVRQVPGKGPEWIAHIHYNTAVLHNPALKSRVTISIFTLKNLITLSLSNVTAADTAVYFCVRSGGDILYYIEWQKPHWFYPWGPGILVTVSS VL: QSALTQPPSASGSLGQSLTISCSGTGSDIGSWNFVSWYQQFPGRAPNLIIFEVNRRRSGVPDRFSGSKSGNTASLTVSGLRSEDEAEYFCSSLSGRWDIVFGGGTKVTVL
output: 4.31

Values from patent US20160264649A1
